These data points were gathered from patent US11207312B2.

target: VIM-1 (Pseudomonas aeruginosa (strain ATCC 15692 / DSM 22644 / CIP 104116 / JCM 14847 / LMG 12228 / 1C / PRS 101 / PAO1)); assay: biochemical; conditions: CCF2-FA fluorescence assay, 2 hours at 25° C.; read-out: VIM1 IC50
Counter-ions that a name gives are not always drawn.
readout: pIC50
By convention, pIC50 is the negative base-10 log of a molar concentration.

Worked cases, pIC50 given:
[
  {
    "compound": "NS(=O)(=O)c1c(S(=O)(=O)N[C@@H]2CCNC2)ccc(N2CCC(Cc3ccccn3)CC2)c1-c1nnn[nH]1",
    "readout": "pIC50",
    "experimental.value": 10.00
  },
  {
    "compound": "NS(=O)(=O)c1c(S(=O)(=O)C2CNC2)ccc(N2CCN(CCCO)CC2)c1-c1nnn[nH]1",
    "readout": "pIC50",
    "experimental.value": 7.60
  },
  {
    "compound": "NCC1CCCN(c2ccc(S(=O)(=O)NC[C@H](O)CN)c(S(N)(=O)=O)c2-c2nn[nH]n2)CC1 (some centres unmarked) [Example 139, trifluoroacetate]",
    "readout": "pIC50",
    "experimental.value": 9.41
  },
  {
    "compound": "CC(=O)N[C@H]1CCN(c2ccc(S(=O)(=O)N[C@@H]3CCNC3)c(S(N)(=O)=O)c2-c2nnn[nH]2)C1",
    "readout": "pIC50",
    "experimental.value": 8.68
  },
  {
    "compound": "NS(=O)(=O)c1c(S(=O)(=O)N[C@@H]2CCNC2)ccc(N2CCC(C(F)F)CC2)c1-c1nnn[nH]1",
    "readout": "pIC50",
    "experimental.value": 9.47
  }
]

Using the record for NC/C=C1\CCCN(c2ccc(S(=O)(=O)NC[C@H](O)CN)c(S(N)(=O)=O)c2-c2nn[nH]n2)C1 (single isomer, unassigned; isomer b) , state its measured pIC50.
9.64

Using the record for `NS(=O)(=O)c1c(S(=O)(=O)N[C@@H]2CCNC2)ccc(N2CCNCC2)c1-c1nnn[nH]1` , state its measured pIC50.
8.07

Using the record for NC[C@@H](O)CNS(=O)(=O)c1ccc(N2CC[C@H](CN)[C@@H](F)C2)c(-c2nn[nH]n2)c1S(N)(=O)=O (stereo in doubt) , state its measured pIC50.
9.85

Using the record for `NC[C@H](N)CNS(=O)(=O)c1ccc(N2CCC(c3c[nH]cn3)CC2)c(-c2nn[nH]n2)c1S(N)(=O)=O` , state its measured pIC50.
10.15
